Each recorded value in this set is attributed to PubChem BioAssay (NCI).

tested on: OVCAR-5 ovarian; experiment: NCI tumour cell line growth inhibition, 48 h
We begin with a simple list: items and their reported TGI.
VALUE_TYPE: TGI (µM)

- CCC[CH2][Sn]1([CH2]CCC)[O]C(=O)C[S]1: 5.27
- Cc1cc2nc3n(c2cc1C)C(c1c(F)cccc1F)SC3 (stereo unspecified): 43
- CC1(C)Oc2ccc(Cl)cc2C12CC2: 34.2

* * *

# maps each entry to its TGI
test system: OVCAR-5 ovarian; test: NCI tumour cell line growth inhibition, 48 h
VALUE_TYPE: TGI

- COc1ccc(N2CCN(c3ccc4c(c3)NCC(=O)N4)CC2)cc1: > 100 µM
- COC(=O)C1CC2(c3ccc(C)cc3)C(c3ccc(C)cc3)=C(c3ccc(C)cc3)C1(c1ccc(C)cc1)S2=O (stereo not drawn): > 100 µM
- Cc1cc[c-]cc1.Fc1c[c-]c(-c2ccccn2)c(F)c1.N#CCC[PH+](CCC#N)c1ccccc1.[Pt+2]: 19.6 µM
- CC(=O)c1ccc2c(c1)oc(=O)n2CCN(C)C: > 100 µM
- O=C(Cc1ccc(/C=C/C(=O)c2ncc[nH]2)cc1)Nc1ccc(Br)cc1: 5.83 µM
- Cc1ccnc(NC(=S)Nc2ccccc2Cl)c1: > 100 µM
- Cc1ccc(S(=O)(=O)n2cc(-c3cnc(N)c(Br)n3)c3ccccc32)cc1: > 77.1 µM
- C=C(C)CC1=C(C(=S)NCCO[Si](C)(C)C(C)(C)C)C(OCC)(OCC)C1=O: 28.5 µM
- Cc1cc2nc3ccc(N=Nc4ccc(N(C)C)cc4)cc3n(-c3ccccc3)c-2cc1=N: 1.55 µM
- O=C(N/C(=C\c1ccc([N+](=O)[O-])cc1)c1nc2[nH]c(=S)[nH]c(=O)c2[nH]1)c1ccccc1: > 100 µM
- O=c1c2cc(-c3ccccc3)cnc2sn1-c1ccc([N+](=O)[O-])cc1: > 100 µM
- Cc1cc(N(CCCNc2ccnc3cc(Cl)ccc23)Cc2cccs2)nc(Cl)n1: 24.3 µM
- Cc1cc(NC2=NCCO2)c2c(c1C)CCCC2: 57.1 µM
- C[C@H](CC[C@@H](O)C(C)(C)O)[C@H]1CC[C@@]2(C)[C@@H]3CC=C4[C@@H](CC[C@H](OC5OC(CO)C(O)C(O)C5O)C4(C)C)[C@]3(C)C(=O)C[C@]12C (stereo partly drawn): > 100 µM
- Sc1nnc(-c2ccccc2Nc2ccccc2-c2nnc(S)n2-c2ccccc2)n1-c1ccccc1: > 100 µM
- COc1cc(C2[C@H]3C(=O)N(c4ccc(Cc5ccc(N6C(=O)[C@@H]7ON(c8ccccc8)C(c8cc(OC)c(OC)c(OC)c8)[C@@H]7C6=O)cc5)cc4)C(=O)[C@H]3ON2c2ccccc2)cc(OC)c1OC (stereo partly drawn): > 100 µM
- COCC(=O)[C@]1(O)Cc2c(O)c3c(c(O)c2[C@@H](OC2CC(N)C(O)C(C)O2)C1)C(=O)c1c(OC)cccc1C3=O (stereo partly drawn): 1.04 µM
- C=C1c2nc3ccccc3n2C=C(c2ccc(Cl)cc2)N1c1ccccc1: > 100 µM

* * *

system: SF-268 CNS; test: NCI tumour cell line growth inhibition, 48 h; in the data active means GI50 below about 0.43 µM; inactive means the rest
Labels: yes (1) = active, no (0) = inactive

* CCC[CH2][Sn]1([CH2]CCC)[O]C(=O)C[S]1 | no (0)
* O=C1C2C(C(=O)[N]1[Hg][c]1ccccc1)C1(Cl)C(Cl)=C(Cl)C2(Cl)C1(Cl)Cl (stereo not drawn) | no (0)
* O=C(O)c1cn(C2CC2)c2cc(N3CCN(S(=O)(=O)c4ccc(Cl)c(Cl)c4)CC3)c(F)cc2c1=O | no (0)
* CCN(CC)c1ccc(/C=C/C(=O)c2cccc(NS(C)(=O)=O)c2)cc1 | no (0)
* O=C(Cc1ccc(/C=C/C(=O)c2ncc[nH]2)cc1)Nc1ccc(Br)cc1 | no (0)
* Cc1cc(-c2ccccc2)c(C)n1Cc1ccc(Cl)cc1 | no (0)
* c1ccc(-c2n(Cc3ccc4ccccc4n3)c3ccccc3[n+]2Cc2ccc3ccccc3n2)cc1 | yes (1)
* COc1cc(C(=O)/C=C/c2c(-c3ccc(F)cc3)nc3sccn23)cc(OC)c1OC | no (0)
* Clc1ccccc1-c1nc2ccccc2[nH]1 | no (0)
* CC(=O)NNC(=O)c1nn(-c2ccc(Cl)cc2)cc1OC(C)=O | no (0)
* COC(=O)c1[nH]nc(-c2ccccc2)c1N1CCCCC1 | no (0)
* COc1ccc(-c2nnc3n(C)c(=O)c4ccccc4n23)cc1O | no (0)
* O=C(c1ccc(O)cc1)c1ccc(C(=O)c2ccc(O)cc2)cc1 | no (0)

* * *

Catalogue of compounds with associated TGI
system: MDA-MB-435; assay: NCI tumour cell line growth inhibition, 48 h
VALUE_TYPE: TGI (µM)

• Oc1c(I)cc(I)cc1CNCCCN(Cc1ccccn1)Cc1ccccn1 = 2
• Sc1nnc(-c2ccccc2Nc2ccccc2-c2nnc(S)n2-c2ccccc2)n1-c1ccccc1 = 53
• CSc1nc(Cl)c(Br)c(Nc2c[nH]c(=O)[nH]c2=O)n1 = 83.7
• Cc1sc2nc(-c3ccccn3)c(/C=N/N=C(N)N)n2c1C = 10.1
• CCOC(=O)N(CC)c1c(C(F)(F)F)cc(-c2ccccc2)[nH]c1=O = 56.7
• Cc1nnc(N)nc1/C=C\c1cccs1 = 74.9
• CC1=CC(=O)c2cccc(NC3=NCCO3)c21 = 86.2
• CCCCCCC(CCl)c1sc(-c2csc(CCNC(=O)OC(C)(C)C)n2)nc1C(=O)OC (stereo not drawn) = 30.4
• Cc1cccc2c(N)c3cccc(C(=O)NCC[N+](C)(C)Cc4sc(N5CCOCC5)nc4[N+](=O)[O-])c3nc12 = 35.2
• Cc1ccccc1NC(=S)N/N=C(/c1ccccc1)c1ccccn1 = 14.2
• O=[N+]([O-])c1cccc2nc3ccccc3c(NCCC[N+]3([O-])CCCCC3)c12 = 0.44
• O=C(CCc1cc(O)cc(O)c1)NCCc1ccc(O)c(O)c1 = 52.8
• Oc1[nH]c2ccccc2c1N=NC(=S)N1CCCCCC1 = 3.71
• Cc1cc[c-]cc1.Fc1c[c-]c(-c2ccccn2)c(F)c1.N#CCC[PH+](CCC#N)c1ccccc1.[Pt+2] = 6.75
• CN(C)CCCNC(=O)c1cc2c3ccccc3[nH]c2c2ncccc12 = 23.4
• Cc1cc(N(CCCNc2ccnc3cc(Cl)ccc23)Cc2cccs2)nc(Cl)n1 = 15.8
• O=C(NN=C1CCCCC1)Nc1ccccc1Cl = 47.5
• Cc1cc(-c2ccccc2)c(C)n1Cc1ccc(Cl)cc1 = 2.55
• CCN(CC)C(=S)SNCCc1ccc(S(N)(=O)=O)cc1 = 29.6
• NC(=O)Nc1ccc2ncnc(Nc3ccc(Cl)cc3)c2c1 = 44.6
• O=C1C=CC2(O[C@@H](Cc3ccccc3)[C@H](Cc3ccccc3)O2)C(SC(=O)c2ccccc2)C1 (stereo partly drawn) = 5.46
• N/C(=N\OC(=O)NC(Cl)=C(Cl)Cl)c1cc(C(F)(F)F)cc(C(F)(F)F)c1 = 48.5
• COc1cc(C2c3cc4c(cc3C3OC(=O)C2C3CO)OCO4)cc(OC)c1OC (stereo not drawn) = 0.0374
• NCCCn1c2c(c3ccc([N+](=O)[O-])cc3c1=O)C(=O)c1cc3c(cc1-2)OCO3 = 3.28

* * *

system: K-562 leukemia; experiment: NCI tumour cell line growth inhibition, 48 h
This listing pairs compounds with measured TGI.
VALUE_TYPE: TGI

• COc1cc(/C=C(\NC(=O)c2ccccc2)c2nc3ccc([N+](=O)[O-])cc3[nH]2)cc(OC)c1OC = > 100 µM
• CC(C)[C@@H](C(=O)O[C@@H]1/C=C/C(=O)O[C@@H](C)CCC/C=C/[C@@H]2C[C@H](O)C[C@H]21)[N+](C)(C)C = > 100 µM
• CCOC(=O)N(CC)c1c(C(F)(F)F)cc(-c2ccccc2)[nH]c1=O = > 100 µM
• COc1ccc(C2C(C(=O)O)=C(COC(C)=O)Oc3cc4c(cc32)OCO4)cc1 (stereo not drawn) = > 100 µM
• O=C1C=C(N2CC2)c2ccccc2C1=O = 5.66 µM
• COc1ccc(S(=O)(=O)O)cc1NS(=O)(=O)c1ccc(C)cc1 = > 100 µM
• Cc1ccc(O)c(Cc2nc3ccccc3nc2-c2cccc(Br)c2)c1 = > 100 µM
• Cc1nc2ccccc2c(=O)n1NC(=O)Cc1ccccc1 = > 100 µM
• Cc1nnc(N)nc1/C=C\c1cccs1 = 59.7 µM
• Cc1ccnc(NC(=S)Nc2ccccc2Cl)c1 = > 100 µM
• O=C(/C=C/c1cccs1)c1ccsc1 = 89.8 µM
• COc1ccc(N2CCN(c3ccc4c(c3)NCC(=O)N4)CC2)cc1 = > 100 µM
• CSc1nc(Cl)c(Br)c(Nc2c[nH]c(=O)[nH]c2=O)n1 = > 100 µM
• CC(O)(c1ccccc1)c1nccc2ccccc12 (stereo not drawn) = > 100 µM
• CC(=O)OCC1OC(OCC2OC(N3C(=S)N[C@H]([C@@H](O)[C@H](O)[C@H](O)CO)[C@H]3O)C(OC(C)=O)C(OC(C)=O)C2OC(C)=O)C(OC(C)=O)C(OC(C)=O)C1OC(C)=O (stereo partly drawn) = > 100 µM
• BrP(NC1CCCCCC1)(c1ccccc1)(c1ccccc1)c1ccccc1 = > 100 µM
• COc1ccc(N2C(=O)C3c4[nH]c5ccccc5c4C4CCC(C(C)C)CC4C3C2=O)cc1 (stereo not drawn) = > 100 µM
• C/C=C/C=C/C1=NN(c2cccc(S(=O)(=O)O)c2)C2(C1)SCC(=O)N2c1nc2ccccc2s1 (stereo not drawn) = > 100 µM
• NC(=O)Nc1ccc2ncnc(Nc3ccc(Cl)cc3)c2c1 = > 100 µM
• Cn1c2ccccc2c2cc(-c3ccccc3)c3c(c21)C(=O)C=CC3=O = > 70.6 µM
• Sc1nnc(-c2ccccc2Nc2ccccc2-c2nnc(S)n2-c2ccccc2)n1-c1ccccc1 = > 100 µM
• COC(=O)c1ccc(C)cc1C1CN=NC12Cc1cc(C)c(C)cc1C2=O (stereo not drawn) = > 100 µM
• Clc1ccccc1-c1nc2ccccc2[nH]1 = > 100 µM
• COc1cc(C)c(C(=O)/C=C/c2cc(OC)c(O)c(OC)c2)cc1O = > 100 µM
• OCCc1cnco1 = > 100 µM
• Clc1ccc(OCC2NC3C=CC32)cn1 (stereo not drawn) = > 100 µM
• CC(=O)NNC(=O)c1nn(-c2ccc(Cl)cc2)cc1OC(C)=O = > 100 µM
• Cc1cc(=O)c2c(O)c3c(O)cc(O)c4c5c(O)cc(O)c6c(O)c7c(=O)cc(C)c8c1c2c(c34)c(c65)c78 = > 100 µM
• O=C([C@H](O)[C@@H](O)c1ccc(Br)cc1)C12CC3CC(CC(C3)C1)C2 = > 100 µM
• O=C(N/C(=C\c1ccc([N+](=O)[O-])cc1)c1nc2[nH]c(=S)[nH]c(=O)c2[nH]1)c1ccccc1 = > 100 µM
• O=C1Nc2ccccc2NC1C1OC(c2ccccc2)=CC1=O (stereo not drawn) = > 100 µM
• CC1(C)CCc2cc3c(cc2O1)OC(C)(C)C1c2c(ccc4c2CCC(C)(C)O4)OC31 (stereo not drawn) = > 100 µM
• CC(C)O/C=C1\C(=O)C2(SCCS2)[C@H]2CCCC[C@@H]12 = > 100 µM
• O=C(Cc1ccccc1)Nc1nnc(CCSCCc2nnc(NC(=O)Cc3ccccc3)s2)s1 = > 100 µM
• Cn1c(=O)c(C(c2ccccc2)c2c(O)c3ccccc3n(C)c2=O)c(O)c2ccccc21 = > 100 µM
• COC(=O)Nc1nc2c(OC)c(OC)c(OC)cc2[nH]1 = > 100 µM
• COc1cc(C/C=C/c2ccccc2)c(OC)cc1O = 31.6 µM
• Nc1c(C(=O)Nc2cccc3ccccc23)sc2nc3c(cc12)CCCC3 = > 100 µM
• CC(C)C(/C=C/c1ccccc1)=N\NC(=O)N/N=C(/C=C/c1ccccc1)C(C)C = > 100 µM
• COc1cc(/C=C/C(=O)c2c(C)n([O-])c3cc(C)c(C)cc3[n+]2=O)cc(OC)c1OC = > 100 µM
• CC1=CC(=O)c2cccc(NC3=NCCO3)c21 = > 100 µM
• CN(N)C(=O)NCCCl = > 100 µM
• CC(C)(C)c1ccc(C(=O)N/N=C/c2ccc(O)cc2O)cc1 = 20.1 µM
